- EXPERIMENT DESCRIPTION: chemical genetic growth profiling, strain panel (AID 1159580);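 also: tested at 20 µM; growth read once vehicle control cultures reached saturation at 30 °C; 1 = growth at the plate median or of vehicle wells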
- ASSAY CONDITIONS: S. cerevisiae deletion strains, growth OD, locus YFR019W, strain FAB1, stronger effect = lower value
The whole screen tested about 5,500 compounds, of which about 2,000 (36%) were called active. Another 18% or so got no clear call; they are omitted. The list shows a part of the results.
RECORDED ENDPOINT: normalized growth

Some solved cases for reference:
COMPOUND: COc1ccc(/C=C2/C(=O)Nc3ccccc32)cc1
normalized growth: 0.887 (inactive)

COMPOUND: COCCCNC(=S)N/N=C\c1cc(Br)ccc1O
normalized growth: 0.983 (inactive)

COMPOUND: O=C(Nc1ccccc1)Nc1ccc(Cl)cc1[N+](=O)[O-]
normalized growth: 0.933 (inactive)

COMPOUND: Oc1c(Cl)cc(Cl)cc1/C=N\NC(=S)Nc1cc(C(F)(F)F)cc(C(F)(F)F)c1
normalized growth: 0.111 (active)

COMPOUND: O=S(=O)(CS(=O)(=O)Oc1ccc(Cl)c(Cl)c1)Oc1ccc(Cl)c(Cl)c1
normalized growth: 0.946 (inactive)

COMPOUND: O=C1Nc2ccccc2/C1=C\c1c(Cl)cccc1Cl
normalized growth: 0.976 (inactive)

COMPOUND: O=[N+]([O-])c1cc(Cl)cc([N+](=O)[O-])c1Nc1ccccc1
normalized growth: 0.963 (inactive)

COMPOUND: Cc1cc(Cl)ccc1NNC(=O)c1sccc1Br
normalized growth: 0.895 (inactive)

Per the record, `CCNC(=S)N/N=C\c1cc(Cl)cc(Cl)c1O` has normalized growth of 0.873 (inactive)

Note to self: normalized growth recorded for Cc1c(C)c(C)c(C(O)c2ccccc2)c(C)c1C (stereo not drawn) was 0.868 (inactive)

Looking up `O=C1Nc2ccccc2/C1=C\c1ccc(Cl)cc1` , I see its normalized growth listed as 0.924 (inactive)

Form: compound = `COc1ccccc1NC(=S)N/N=C\c1ccccc1O` ; normalized growth = 0.976 (inactive)

Consider `Oc1c(Br)cc(Br)cc1C=Nc1ccccn1` . Its measured normalized growth is 0.111 (active)

Per the records, this compound ( `Cc1cc(Oc2ccc(C(F)(F)F)cc2NS(C)(=O)=O)cc(C)c1Cl` ) has normalized growth equal to 0.984 (inactive)

Lookup result for `Cc1cc(Cl)ccc1NNC(=O)c1sccc1Cl` ; measured normalized growth: 0.907 (inactive)

Summary for this compound, `COCCCNC(=S)N/N=C\c1cc(Cl)cc(Cl)c1O` : normalized growth is 0.962 (inactive)

# compound `O=C(NNc1ccc(F)cc1F)c1sccc1Cl` ; its normalized growth = 0.916 (inactive)

normalized growth reading for OC1(C(F)(F)F)CC(c2ccc3ccccc3c2)=NN1 (stereo not drawn) : 0.376 (active)

====

- EXPERIMENT DESCRIPTION: chemical genetic growth profiling, strain panel (AID 1159580)
- ASSAY CONDITIONS: S. cerevisiae deletion strains, growth OD, locus YLR371W, strain rom2, stronger effect = lower value
Screen size: about 5,500 compounds; about 2,000 (36%) were called active. About 18% were inconclusive and are not listed. The list shows a part of the results.
RECORDED ENDPOINT: normalized growth
# respond with the number and nothing more

MOLECULE: CCN1C[C@]2(C)CC[C@H](OC)[C@]34C2[C@H](O)[C@]2(OCO[C@@]25C[C@H](OC)[C@H]2C[C@]3(O)C5[C@H]2O)C14
normalized growth: 1

MOLECULE: CC(=O)O[C@@H]1CC2C(C)(C)C(=O)C=C[C@]2(C)C2CC[C@@]3(C)[C@H](c4ccoc4)OC(=O)[C@H]4O[C@]43[C@@]21C (stereo partly drawn)
normalized growth: 0.989

Lab note: next molecule to report on.
Form field normalized growth, entry CC1(C)C2CC(=O)[C@]3(C)C(CC[C@@]4(C)[C@H](c5ccoc5)OC(=O)C5OC543)[C@@]2(C)[C@@H](O)C[C@H]1O (stereo partly drawn) : 0.992

====

- EXPERIMENT DESCRIPTION: chemical genetic growth profiling, strain panel (AID 1159580);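 also: tested at 20 µM; growth read once vehicle control cultures reached saturation at 30 °C; 1 = growth at the plate median or of vehicle wells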
- ASSAY CONDITIONS: S. cerevisiae deletion strains, growth OD, locus YLL001W, strain dnm1, stronger effect = lower value
The campaign covered roughly 5,500 compounds. About 2,000 (36%) were called active. Inconclusive results (about 18%) are left out. Some of the results follow.
Listed here: items and their measured normalized growth.
The answer should be written as a number, with no unit following it.

COMPOUND: CCCC(C)(COC(N)=O)COC(=O)NC(C)C (configuration not stated)
ASSAY RESULT: 1.02
//
COMPOUND: CCN(Cc1ccncc1)C(=O)C(CO)c1ccccc1 (configuration not stated)
ASSAY RESULT: 1.02
//
COMPOUND: CN[C@@H]1[C@@H](O)C(OC2[C@@H](N)C[C@@H](N)[C@H](O[C@H]3O[C@H](C(C)O)[C@@H](O)[C@H](O)[C@H]3N)[C@H]2O)OC[C@]1(C)O (some centres not stated)
ASSAY RESULT: 0.988
//
COMPOUND: Cc1cc(OC(=O)c2c(C)cc(O)cc2O)cc(O)c1C(=O)O
ASSAY RESULT: 1.01
//
COMPOUND: NS(=O)(=O)c1cc(C2(O)NC(=O)c3ccccc32)ccc1Cl (configuration not stated)
ASSAY RESULT: 0.972
//
COMPOUND: COC(=O)c1c(C)cc(OC)cc1O
ASSAY RESULT: 0.973

Here is the next item to consider.
Notebook: CC(C)(C)NCC(O)c1cc(O)cc(O)c1 (configuration not stated) , normalized growth read as 1

====

- EXPERIMENT DESCRIPTION: chemical genetic growth profiling, strain panel (AID 1159580);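 also: tested at 20 µM; growth read once vehicle control cultures reached saturation at 30 °C; 1 = growth at the plate median or of vehicle wells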
- ASSAY CONDITIONS: S. cerevisiae deletion strains, growth OD, locus YBR279W, strain paf1, stronger effect = lower value
Hit rate of the full screen: of about 5,500 compounds, about 2,000 (36%) were called active. About 18% were inconclusive and are not listed. The list shows a part of the results. Where a SMILES comes first, the peptide text is derived from it.
RECORDED ENDPOINT: normalized growth

Examples from the recorded data:
COMPOUND: COC(=O)[C@H](Cc1ccccc1)NC(=O)[C@@H](N)CC(=O)O (H-Asp-Phe-OMe)
normalized growth: 1.02 (inactive)
//
COMPOUND: CC1(C)C(=O)C=C[C@@]2(C)C1C=C[C@]1(C)C2CC[C@@]2(C)[C@H](c3ccoc3)OC(=O)C3OC321 (stereo not given in full)
normalized growth: 0.964 (inactive)
//
COMPOUND: C=C(C)[C@H]1COc2cc3oc(=O)ccc3cc2O1
normalized growth: 0.931 (active)
//
COMPOUND: CCCC(C)(COC(N)=O)COC(=O)NC(C)C (stereo not given)
normalized growth: 1 (inactive)
//
COMPOUND: Cc1[nH]ccc2c1[nH]c1cc(=O)ccc12
normalized growth: 1.01 (inactive)

Recorded normalized growth (compound CC1(C)C2CC(=O)[C@]3(C)C(CC[C@@]4(C)[C@H](c5ccoc5)OC(=O)[C@H]5O[C@]543)[C@@]2(C)C(=O)C[C@H]1O (stereo not given in full) ): 1.01 (inactive)

Summary for this compound, CO[C@@]1(NC(=O)C(C(=O)O)c2ccc(O)cc2)C(=O)N2C(C(=O)O)=C(CSc3nnnn3C)CO[C@@H]21 (stereo not given in full) : normalized growth is 0.995 (inactive)

For record O=c1ccc2cc(OC3OC(CO)C(O)C(O)C3O)c(O)cc2o1 (stereo not given) the listed normalized growth is 0.998 (inactive)

Form: compound = CC(C)c1c(O)ccc2c1CCC1[C@@](C)(C=O)CCC[C@]21C (stereo not given in full) ; normalized growth = 0.955 (inactive)

normalized growth reading for O=C(Cc1cccs1)NC1C(=O)N2C(C(=O)[O-])=C(C[n+]3ccccc3)CSC12 (stereo not given) : 0.996 (inactive)

====

- EXPERIMENT DESCRIPTION: chemical genetic growth profiling, strain panel (AID 1159580);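 also: tested at 20 µM; growth read once vehicle control cultures reached saturation at 30 °C; 1 = growth at the plate median or of vehicle wells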
- ASSAY CONDITIONS: S. cerevisiae deletion strains, growth OD, locus YDL101C, strain DUN1
The whole screen tested about 5,500 compounds, of which about 2,000 (36%) were called active. Roughly 18% stayed inconclusive and do not appear here. No stated cut-off is given here; in the data, active means normalized growth mostly below about 0.91 (no sharp cut-off); inconclusive means no clear call, values can overlap the other calls; inactive means mostly above about 0.92. The list shows a part of the results.
Output constraint: value belongs to 1 for active, 0 for inactive

Completed entries (count: 5):
COMPOUND: CSc1nsc(SC)c1C(=O)NC(=O)Nc1ccc(F)cc1F
LABEL CLASS: 0

COMPOUND: CCOC(=O)C1=C(N)Oc2ccc(Br)cc2C1C(C#N)C(=O)OCC (stereo not given)
LABEL CLASS: 1

COMPOUND: CCC(=O)c1c(O)cc(O)cc1O
LABEL CLASS: 0

COMPOUND: CN1C[C@H](C(=O)N[C@]2(C)O[C@@]3(O)[C@@H]4CCCN4C(=O)[C@H](Cc4ccccc4)N3C2=O)C[C@@H]2c3cccc4[nH]cc(c34)C[C@H]21
LABEL CLASS: 0

COMPOUND: CCOC(=O)c1c(C)cc(O)cc1O
LABEL CLASS: 0

Q) Outcome? `O=C1Nc2ccccc2/C1=C\c1c(Cl)cccc1Cl`
A) 0

Q) Please share the test call associated with `Cc1cc(OC(=O)c2c(C)cc(O)cc2O)cc(O)c1C(=O)O` .
A) 0

Q) // param item: `COc1cccc2c(C)cc(=O)[nH]c12` ; yields the recorded call
A) 0

Q) Called result for `CC(=O)OCC1=C(C(=O)O)N2C(=O)[C@@H](NC(=O)Cc3cccs3)[C@H]2SC1`
A) 0
